- SUBJECT_OF_TEST: P-selectin (Homo sapiens)
- Sequence (P16109 whole entry): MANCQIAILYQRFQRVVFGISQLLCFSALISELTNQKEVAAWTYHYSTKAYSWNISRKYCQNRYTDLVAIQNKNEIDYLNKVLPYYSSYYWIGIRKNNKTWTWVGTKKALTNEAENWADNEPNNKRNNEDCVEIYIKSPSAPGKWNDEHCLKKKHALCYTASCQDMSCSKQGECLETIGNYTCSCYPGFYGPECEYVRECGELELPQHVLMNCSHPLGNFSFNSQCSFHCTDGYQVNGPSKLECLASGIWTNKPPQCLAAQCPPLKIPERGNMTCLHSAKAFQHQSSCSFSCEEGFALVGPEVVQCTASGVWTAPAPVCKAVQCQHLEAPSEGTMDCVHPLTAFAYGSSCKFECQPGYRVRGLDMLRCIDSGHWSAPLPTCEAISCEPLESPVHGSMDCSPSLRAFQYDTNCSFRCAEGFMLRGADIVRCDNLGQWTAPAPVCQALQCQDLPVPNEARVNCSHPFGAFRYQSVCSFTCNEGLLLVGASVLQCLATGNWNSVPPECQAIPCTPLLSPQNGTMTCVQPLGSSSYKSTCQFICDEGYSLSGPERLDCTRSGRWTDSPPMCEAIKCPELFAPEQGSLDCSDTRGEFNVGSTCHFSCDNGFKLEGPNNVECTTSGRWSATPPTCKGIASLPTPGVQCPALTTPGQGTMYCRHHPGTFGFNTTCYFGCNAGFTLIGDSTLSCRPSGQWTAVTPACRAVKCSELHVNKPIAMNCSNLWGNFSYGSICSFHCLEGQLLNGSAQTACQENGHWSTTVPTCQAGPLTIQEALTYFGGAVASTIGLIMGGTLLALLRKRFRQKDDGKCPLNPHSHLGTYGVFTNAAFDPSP
- TEST_METHOD_NOTES: Antagonist activity at P-selectin (unknown origin) assessed as adhesion to [3H]thymidine-labelled human HL60 cells by static assay
- Type: cell-based, HL-60
REPORTED_PROPERTY: IC50 (µM)

Use the examples below as a reference point.
>  <INPUT_SMILES>
COC(=O)[C@H](O[C@@H]1O[C@@H](C)[C@@H](O)[C@@H](O)[C@@H]1O)[C@@H](O[C@@H]1O[C@H](CO)[C@H](O)[C@H](O[C@H](Cc2ccccc2)C(=O)O)[C@H]1OC(=O)c1ccccc1)C(=O)OC

>  <UNIT_DESCRIPTOR>
µM

>  <RESULT_NUMBER>
1900

$$$$
>  <INPUT_SMILES>
CC(C)OC(=O)[C@H](O[C@@H]1O[C@@H](C)[C@@H](O)[C@@H](O)[C@@H]1O)[C@@H](O[C@@H]1O[C@H](CO)[C@H](OC(=O)c2ccccc2)[C@H](O[C@H](Cc2ccccc2)C(=O)O)[C@H]1OC(=O)c1ccccc1)C(=O)OC(C)C

>  <UNIT_DESCRIPTOR>
µM

>  <RESULT_NUMBER>
67

$$$$

P = COC(=O)[C@H](O[C@@H]1O[C@@H](C)[C@@H](O)[C@@H](O)[C@@H]1O)[C@@H](O[C@@H]1O[C@H](CO)[C@H](O)[C@H](O[C@H](Cc2ccccc2)C(=O)O)[C@H]1O)C(=O)OC
Q = COC(=O)[C@H](O[C@@H]1O[C@@H](C)[C@@H](O)[C@@H](O)[C@@H]1O)[C@@H](O[C@@H]1O[C@H](CO)[C@H](OC(=O)c2ccccc2)[C@H](O[C@H](Cc2ccccc2)C(=O)O)[C@H]1OC(=O)c1ccccc1)C(=O)OC
R = CC(C)OC(=O)[C@H](O[C@@H]1O[C@@H](C)[C@@H](O)[C@@H](O)[C@@H]1O)[C@@H](O[C@@H]1O[C@H](CO)[C@H](O)[C@H](O[C@H](Cc2ccccc2)C(=O)O)[C@H]1OC(=O)c1ccccc1)C(=O)OC(C)C
Rank by IC50 (largest to smallest). Returns: the labels listed in the requested order.
P, R, Q

* * *

- SUBJECT_OF_TEST: E-selectin (Homo sapiens, UniProt P16581)
- Sequence (P16581 whole entry): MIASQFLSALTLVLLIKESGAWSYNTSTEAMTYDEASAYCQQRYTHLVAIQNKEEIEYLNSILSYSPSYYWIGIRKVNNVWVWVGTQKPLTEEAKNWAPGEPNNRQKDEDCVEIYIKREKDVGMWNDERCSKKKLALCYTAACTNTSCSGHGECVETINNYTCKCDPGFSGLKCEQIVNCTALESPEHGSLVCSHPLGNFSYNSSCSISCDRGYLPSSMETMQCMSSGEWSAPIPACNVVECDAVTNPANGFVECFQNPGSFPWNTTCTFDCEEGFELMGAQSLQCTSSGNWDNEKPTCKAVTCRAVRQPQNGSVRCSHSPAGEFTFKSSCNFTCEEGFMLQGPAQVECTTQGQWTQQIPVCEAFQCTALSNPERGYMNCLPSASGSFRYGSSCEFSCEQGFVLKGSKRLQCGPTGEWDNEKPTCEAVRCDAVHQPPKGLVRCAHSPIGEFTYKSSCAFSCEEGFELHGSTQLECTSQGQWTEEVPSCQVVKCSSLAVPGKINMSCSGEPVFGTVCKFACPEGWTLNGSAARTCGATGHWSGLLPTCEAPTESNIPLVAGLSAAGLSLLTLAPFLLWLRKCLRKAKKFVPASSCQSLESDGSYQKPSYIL
- TEST_METHOD_NOTES: Antagonist activity at E-selectin (unknown origin) assessed as adhesion to [3H]thymidine-labelled human HL60 cells by static assay
pIC50: −log10 of the molar value.
REPORTED_PROPERTY: pIC50

Use the examples below as a reference point.
>  <INPUT_SMILES>
CC(C)OC(=O)[C@H](O[C@@H]1O[C@@H](C)[C@@H](O)[C@@H](O)[C@@H]1O)[C@@H](O[C@@H]1O[C@H](CO)[C@H](O)[C@H](O[C@H](Cc2ccccc2)C(=O)O)[C@H]1OC(=O)c1ccccc1)C(=O)OC(C)C

>  <pIC50>
3.66

$$$$
>  <INPUT_SMILES>
COC(=O)[C@H](O[C@@H]1O[C@@H](C)[C@@H](O)[C@@H](O)[C@@H]1O)[C@@H](O[C@@H]1O[C@H](CO)[C@H](OC(=O)c2ccccc2)[C@H](O[C@H](Cc2ccccc2)C(=O)O)[C@H]1OC(=O)c1ccccc1)C(=O)OC

>  <pIC50>
3.85

$$$$

P = CC(C)OC(=O)[C@H](O[C@@H]1O[C@@H](C)[C@@H](O)[C@@H](O)[C@@H]1O)[C@@H](O[C@@H]1O[C@H](CO)[C@H](OC(=O)c2ccccc2)[C@H](O[C@H](Cc2ccccc2)C(=O)O)[C@H]1OC(=O)c1ccccc1)C(=O)OC(C)C
Q = COC(=O)[C@H](O[C@@H]1O[C@@H](C)[C@@H](O)[C@@H](O)[C@@H]1O)[C@@H](O[C@@H]1O[C@H](CO)[C@H](O)[C@H](O[C@H](Cc2ccccc2)C(=O)O)[C@H]1O)C(=O)OC
R = COC(=O)[C@H](O[C@@H]1O[C@@H](C)[C@@H](O)[C@@H](O)[C@@H]1O)[C@@H](O[C@@H]1O[C@H](CO)[C@H](O)[C@H](O[C@H](Cc2ccccc2)C(=O)O)[C@H]1OC(=O)c1ccccc1)C(=O)OC
Order by pIC50, ascending. Returns: the labels listed in the requested order.
Q, R, P
(Q: 2.26, R: 2.68, P: 4.12)

Where do these numbers come from? They come from ChEMBL document CHEMBL3352221.
